The measurements presented in this section are drawn from PubChem BioAssay AID720504.

- target system: Serine/threonine-protein kinase PLK1 (Homo sapiens) (UniProt P53350)
- Sequence (P53350 whole entry, looked up, the tested form may be a part): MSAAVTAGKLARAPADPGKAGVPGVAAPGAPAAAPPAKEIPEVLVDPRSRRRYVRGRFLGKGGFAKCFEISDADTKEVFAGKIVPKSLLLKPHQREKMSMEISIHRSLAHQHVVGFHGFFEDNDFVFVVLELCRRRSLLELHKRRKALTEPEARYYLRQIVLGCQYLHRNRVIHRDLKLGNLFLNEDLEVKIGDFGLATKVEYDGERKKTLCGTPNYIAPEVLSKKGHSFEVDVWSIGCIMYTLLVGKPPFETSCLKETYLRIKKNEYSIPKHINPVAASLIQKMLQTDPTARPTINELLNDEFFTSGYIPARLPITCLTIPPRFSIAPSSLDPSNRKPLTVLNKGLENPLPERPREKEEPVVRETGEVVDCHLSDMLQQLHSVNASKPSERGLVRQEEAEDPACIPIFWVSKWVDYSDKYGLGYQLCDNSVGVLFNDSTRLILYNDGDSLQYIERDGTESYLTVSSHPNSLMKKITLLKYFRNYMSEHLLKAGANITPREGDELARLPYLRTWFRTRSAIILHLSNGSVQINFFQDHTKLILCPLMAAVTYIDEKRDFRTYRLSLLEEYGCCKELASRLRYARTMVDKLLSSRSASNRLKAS
- assay summary: qHTS for Inhibitors of PLK1-PDB (polo-like kinase 1 - polo-box domain): Primary Screen; further: nearly all actives have a fitted effect of over 65% in size; on max response, negative = inhibition: series mostly up to about 57 µM; on the % scale 0 is the no-effect control and ±100 the full control effect
- applied conditions: Plk1 PBD binding of FITC phosphopeptide, fluorescence polarization
- From the text: The polo-like kinase 1 (Plk1) is a member of a conserved subfamily of serine / threonine protein kinases that plays a pivotal roles in cell proliferation. It has a C-terminal non-catalytic region called the polo-box domain (PBD) that plays a crucial role in the subcellular localization of the Plk1. […] This project employed a fluorescence polarization (FP) assay using a FITC-conjugated phospho-9-mer (p-9-mer) peptide and purified human Plk1 PBD protein. […]
About 10,000 (2.8%) of roughly 360,000 compounds were called active. Inconclusive results (about 4%) are left out. The entries come from a sample that favours actives as a whole.

compound: COC(=O)c1ccc(/C=N/N2C(C)CCCC2C)cc1 (stereo unspecified)
target system: Serine/threonine-protein kinase PLK1 (Homo sapiens) (UniProt P53350)
max response, negative = inhibition, %: -11.6

compound: O=[N+]([O-])c1cccc(/C([O-])=C(/C(=S)Nc2ccccc2F)[n+]2ccccc2)c1
target system: Serine/threonine-protein kinase PLK1 (Homo sapiens) (UniProt P53350)
max response, negative = inhibition, %: -15

compound: O=C(NC1CCN(C(=S)Nc2ccc(Cl)cc2)CC1)C1CCCCC1
target system: Serine/threonine-protein kinase PLK1 (Homo sapiens) (UniProt P53350)
max response, negative = inhibition, %: -11.1

compound: O=C(CSc1ncn[nH]1)Nc1ccc(Br)cc1Br
target system: Serine/threonine-protein kinase PLK1 (Homo sapiens) (UniProt P53350)
max response, negative = inhibition, %: -1.62

compound: CCn1cc(C(=O)NCC2COc3ccccc3O2)c2cc(OC)c(OC)cc2c1=O (stereo unspecified)
target system: Serine/threonine-protein kinase PLK1 (Homo sapiens) (UniProt P53350)
max response, negative = inhibition, %: -0.135

compound: CCCCN1C(=O)C(CC(=O)NCc2cccs2)CC(C(=O)N2CCCCCC2)=C1C (stereo unspecified)
target system: Serine/threonine-protein kinase PLK1 (Homo sapiens) (UniProt P53350)
max response, negative = inhibition, %: -3.48

###

- target system: Serine/threonine-protein kinase PLK1 (Homo sapiens) (UniProt P53350)
- assay summary: qHTS for Inhibitors of PLK1-PDB (polo-like kinase 1 - polo-box domain): Primary Screen; further: nearly all actives have a fitted effect of over 65% in size; further: potency means the concentration at half of the fitted maximal effect
- applied conditions: Plk1 PBD binding of FITC phosphopeptide, fluorescence polarization
The campaign covered roughly 360,000 compounds. About 10,000 (2.8%) were called active. Inconclusive results (about 4%) are left out. This is one part of a sample in which actives are shown more often than they occur.
Catalogue of Potency readings, one per entry.

compound: Nc1ccc2[nH]c(=S)sc2c1
Potency: 2.99 µM (active)
--
compound: CC1=NN(c2ccc(Cl)c(C(=O)O)c2)C(=O)/C1=C/c1ccc(-c2ccccc2[N+](=O)[O-])o1
Potency: 0.844 µM (active)
--
compound: CC1CCN(C(=S)c2cccc(O)c2)CC1
Potency: 18.9 µM (active)
--
compound: COc1ccc(-c2nn(-c3ccccc3)cc2/C=C2/SC(=S)N(CCCC(=O)O)C2=O)c(C)c1
Potency: 29.9 µM (active)
--
compound: CCN(CC)CCCC(C)n1c2nc(=O)[nH]c(=O)c-2nc2cc(Cl)ccc21 (stereo unspecified)
Potency: 0.752 µM (active)
--
compound: CCO/C=C1\C(=O)N(c2ccc(OCC)cc2)C(=O)c2ccccc21
Potency: 13.4 µM (active)
--
compound: CN(C)S(=O)(=O)c1cccc(-c2nn(-c3ccccc3)cc2/C=C2\SC(=S)N(CC(=O)O)C2=O)c1
Potency: 26.7 µM (active)
--
compound: O=C(COc1ccccc1)Nc1ccc(N2CCN(C(=O)c3cccs3)CC2)cc1
Potency: 26.7 µM (active)
--
compound: Nc1[nH]c(=S)nc2nc(-c3ccccc3)c(-c3ccccc3)nc12
Potency: 21.2 µM (active)
--
compound: COc1cccc(Nc2nnc(SCC(=O)N3CC(=O)Nc4ccccc43)s2)c1
Potency: 26.7 µM (active)
--
compound: CN1C(=O)c2cccc3c(N)ccc(c23)C1=O
Potency: 3.36 µM (active)
--
compound: CCCn1c(=S)[nH]c2ccc(C(F)(F)F)cc21
Potency: 10.6 µM (active)
--
compound: Cc1ccccc1OC(=O)Cn1c(C(F)(F)F)nc2ccccc21
Potency: 15 µM (active)
--
compound: CCOC(=O)Cc1c(C)nc2c(C#N)c(C)nn2c1C
Potency: 18.9 µM (active)
--
compound: Brc1ccc(-c2nn[nH]n2)cc1
Potency: 23.8 µM (active)
--
compound: Cc1nn(-c2ccccc2)c(C)c1C(=O)OCC(=O)NC(=O)NC1CCCCC1
Potency: 21.2 µM (active)
--
compound: C=CS(=O)c1sc(Cl)c(N2CCOCC2)c1[N+](=O)[O-] (stereo unspecified)
Potency: 1.34 µM (active)
--
compound: CC(=O)c1c(C)c[nH]c1C
Potency: 3.36 µM (active)
--
compound: CCn1cc(/C=C(\NC(=O)c2ccc(C)cc2)C(=O)NCCN2CCOCC2)c2ccccc21
Potency: 26.7 µM (active)
--
compound: O=C(C1CC(=O)N(c2ccc(F)cc2)C1)N1CCN(c2ccccc2)CC1 (stereo unspecified)
Potency: 18.9 µM (active)
--
compound: COc1ccc(OC)c(Nc2nc(-c3ccc(O)c(O)c3)cs2)c1
Potency: 29.9 µM (active)
--
compound: COc1ccc(Cl)cc1-n1c(=S)sc2c(=O)n(-c3ccc(F)cc3)c(SCC(=O)O)nc21
Potency: 23.8 µM (active)
--
compound: COc1cccc(NC(=O)CCc2nnc3ccc(N4CCC(C)CC4)nn23)c1
Potency: 26.7 µM (active)
--
compound: O=[N+]([O-])c1cc(Cl)cc(/C=N/NC(=S)Nc2cc(S(=O)(=O)N3CCOCC3)ccc2Cl)c1O
Potency: 10.6 µM (active)
--
compound: COCCNC(=S)Nc1cc(S(=O)(=O)N2CCOCC2)ccc1N1CCCCC1
Potency: 2.99 µM (active)
--
compound: S=c1[nH]c2ccccc2c2ccccc12
Potency: 18.9 µM (active)
--
compound: C=CCOc1ccc(/C=C2\SC(=S)N(CCC(=O)O)C2=O)cc1
Potency: 26.7 µM (active)
--
compound: CSc1ccccc1C(=O)Nc1cccc(C(C)=O)c1
Potency: 23.8 µM (active)
--
compound: COc1ccc(C2CC(c3cccs3)=NN2C(=O)CCC(=O)O)cc1OC (stereo unspecified)
Potency: 23.8 µM (active)
--
compound: CC(=O)N1c2ccccc2N(Cc2ccc([N+](=O)[O-])cc2)C(=O)C1(C)C
Potency: 29.9 µM (active)
--
compound: COc1ccc(CCCc2nnc(SCc3nc4ccccc4c(=O)[nH]3)n2C)cc1
Potency: 3.77 µM (active)
--
compound: O=C(C[n+]1ccccc1)N/N=C/c1ccc(O)cc1
Potency: 26.7 µM (active)
--
compound: Cc1nn(C)cc1N1C(=O)c2cccc3c(N)ccc(c23)C1=O
Potency: 2.38 µM (active)
--
compound: COc1ccc(-c2[nH]ncc2/C=N/NC(=O)c2cc(Br)ccc2O)c(OC)c1
Potency: 26.7 µM (active)
--
compound: CCOC(=O)CNc1nc(Cl)nc(Nc2ccccc2)n1
Potency: 21.2 µM (active)
--
compound: COc1cccc2sc(N(CCCN(C)C)C(=O)CCS(=O)(=O)c3ccccc3)nc12
Potency: 10.6 µM (active)

###

- target system: Serine/threonine-protein kinase PLK1 (Homo sapiens) (UniProt P53350)
- assay summary: qHTS for Inhibitors of PLK1-PDB (polo-like kinase 1 - polo-box domain): Primary Screen; further: nearly all actives have a fitted effect of over 65% in size; on max response, negative = inhibition: series mostly up to about 57 µM; on the % scale 0 is the no-effect control and ±100 the full control effect
- applied conditions: Plk1 PBD binding of FITC phosphopeptide, fluorescence polarization
In all, about 360,000 compounds went through this assay and about 10,000 (2.8%) were called active. Another 4% or so got no clear call; they are omitted. What follows is part of a selection rich in actives, with near analogues and random picks from the rest.

compound: Nn1c(SCC(=O)Nc2nccs2)nnc1-c1ccco1
max response, negative = inhibition: -17.8% (inactive)
--
compound: Cc1cccc(C)c1NC(=O)C(c1cccc(F)c1)N1CCN(C)CC1 (stereo not given)
max response, negative = inhibition: -7.61% (inactive)
--
compound: CC1(C)CC(=O)C=C(c2ccc(COC(=O)c3cc(F)cc(F)c3)cc2)C1=O
max response, negative = inhibition: -3.92% (inactive)
--
compound: CCN1C(=O)C(CC(=O)Nc2cc(C)ccc2C)SC1=Nc1ccc(S(N)(=O)=O)cc1 (stereo not given)
max response, negative = inhibition: -2.89% (inactive)
--
compound: O=C(Nc1cc(Br)ccc1F)c1nc[nH]c1C(=O)NCc1ccccc1
max response, negative = inhibition: -13.2% (inactive)

###

- target system: Serine/threonine-protein kinase PLK1 (Homo sapiens) (UniProt P53350)
- assay summary: qHTS for Inhibitors of PLK1-PDB (polo-like kinase 1 - polo-box domain): Primary Screen; further: nearly all actives have a fitted effect of over 65% in size; on max response, negative = inhibition: series mostly up to about 57 µM; on the % scale 0 is the no-effect control and ±100 the full control effect
- applied conditions: Plk1 PBD binding of FITC phosphopeptide, fluorescence polarization
About 10,000 (2.8%) of roughly 360,000 compounds were called active. About 4% were inconclusive and are not listed. What follows is part of a selection rich in actives, with near analogues and random picks from the rest.
measured parameter: max response, negative = inhibition (%)

compound: Cc1cccc(N2CCN(C(=O)c3ccccc3NC(=O)C3CCCCC3C(=O)O)CC2)c1 (stereo not drawn)
measured parameter: max response, negative = inhibition
reported result: -5.42
--
compound: COc1ccc(C(O)c2nc(-c3ccc(OC)nc3)cs2)cc1 (stereo not drawn)
measured parameter: max response, negative = inhibition
reported result: 6.19
--
compound: CCCCC[C@@H]1C=C(C(=O)OCC)[C@H](c2ccccc2)N1S(=O)(=O)c1ccc(C)cc1
measured parameter: max response, negative = inhibition
reported result: -0.281
--
compound: COC(=O)[C@@]1(Cc2ccc(F)cc2)[C@H]2c3cc(C(=O)N(C)C)n(CCc4c[nH]c5ccc(OC)cc45)c3C[C@H]2CN1C(=O)c1ccccc1
measured parameter: max response, negative = inhibition
reported result: -0.876
--
compound: CC(C)C[C@@H]1COc2cc(N3CCC[C@@H]3CO)ccc2S(=O)(=O)N1
measured parameter: max response, negative = inhibition
reported result: 2.66
--
compound: COc1ccc(-c2ccc(C(=O)NCCN3CCOCC3)c3occc23)c(C)c1
measured parameter: max response, negative = inhibition
reported result: -10.9
--
compound: CC1(C(=O)NS(=O)(=O)c2ccccc2)CCN1C(=O)C1CCCCC1 (stereo not drawn)
measured parameter: max response, negative = inhibition
reported result: -5.58
--
compound: Cc1ccc(S(=O)(=O)N2CCN(C(=O)N3CCOCC3)CC2)c(C)c1
measured parameter: max response, negative = inhibition
reported result: 3.35
